- TARGET_OR_SYSTEM: T1, human Calcitonin Gene-Related Peptide (CGRP) (human, not fully specified)
- T1 construct: also called hCGRP; Human CGRP
- T1 peptide: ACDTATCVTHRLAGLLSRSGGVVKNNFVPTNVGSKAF
- TEST_METHOD_NOTES: SPR Biacore 8k; antibody amine-coupled to chip, CGRP as analyte
# Lookup of reported Kd keyed by entry
PROPERTY_NAME: Kd (pM)

1. REMD 128 (antibody, human IgG4 S228P, kappa, V domains shown, Humanized full-length IgG (IgG4 constant region, kappa); also called IgG 10 (H3/L2); 10 (H3/L2)) VH: QVQLVQSGAEVVKPGASVKVSCKASGYTFTDYYMNWVKQAPGQGLEWIGDVNPNNGGTHYNQKFKGRVTLTVDTSISTAYMELSRLRSDDTAVYYCASITIVPVYFDFWGQGTLVTVSS VL: DIQLTQSPSFLSASVGDRVTITCKASQNVGPNVAWYRQKPGKAPKALIYSASYRYSGVPSRFSGSGSGTEFTLTISSLQPEDFATYICQQYNYYPYTFGQGTKLEIKR    1.37
2. REMD 128.3 (antibody, human IgG4 S228P, kappa, V domains shown, Humanized full-length IgG (IgG4 constant region, kappa); also called IgG 14 (H4/L2); 14 (H4/L2)) VH: QVQLVQSGAEVVKPGASVKISCKASGYTFTDYYMNWVKQAPGQGLEWIGDVNPNNGGTHYNQKFKGRATLTVDTSISTAYMELSRLRSDDTAVYYCASITIVPVYFDFWGQGTLLTVSS VL: DIQLTQSPSFLSASVGDRVTITCKASQNVGPNVAWYRQKPGKAPKALIYSASYRYSGVPSRFSGSGSGTEFTLTISSLQPEDFATYICQQYNYYPYTFGQGTKLEIKR    1.54
3. REMD 128.2 (antibody, human IgG4 S228P, kappa, V domains shown, Humanized full-length IgG (IgG4 constant region, kappa); also called IgG 15 (H4/L3); 15 (H4/L3)) VH: QVQLVQSGAEVVKPGASVKISCKASGYTFTDYYMNWVKQAPGQGLEWIGDVNPNNGGTHYNQKFKGRATLTVDTSISTAYMELSRLRSDDTAVYYCASITIVPVYFDFWGQGTLLTVSS VL: DIQLTQSPSFLSTSVGDRVTITCKASQNVGPNVAWYRQKPGKSPKALIYSASYRYSGVPSRFSGSGSGTEFTLTISSLQPEDFATYICQQYNYYPYTFGQGTKLEIKR    1.52

src = patent US20200407433A1
